# TGI per entry
tested on: NCI-H226 lung; experiment: NCI tumour cell line growth inhibition, 48 h
Note: unit µM is implicit; provide only the numeric part.

[[record]]
molecule = "C[C@@H]1Cc2cc(O)ccc2[C@H]2CC[C@]3(C)/C(=C/COCCN(C)C)CC[C@H]3[C@H]12 (tested in a mixture with another compound)"
readout_units = "µM"
measured_result = 1.97


Shift focus to the following entry.
Note TGI for the molecule shown: CN(C)CCNC(=O)c1cccc2c(NC(CCC(N)=O)C(=O)O)c3ccccc3nc12 (stereo not given)
46.6

----------
system: NCI-H460 lung; assay: NCI tumour cell line growth inhibition, 48 h
READOUT KIND: TGI

[[record]]
molecule = "O=c1c2cc(F)ccc2sc2c(NCCCNCCO)nc3ccccc3c12"
measured_result = "3.19 µM"

[[record]]
molecule = "COc1cc(/C=C/c2ccc3c(Br)cc(Br)c(O)c3n2)ccc1O"
measured_result = "11.5 µM"

[[record]]
molecule = "CNNC(=NS(=O)(=O)c1cc(C#N)c(NNC)cc1S)NNC"
measured_result = "> 10 µM"

[[record]]
molecule = "CCc1ccc2c(c1)N(CC(C)CN(C)C)c1ccccc1S2 (stereo unspecified)"
measured_result = "8.51 µM"

[[record]]
molecule = "N#C/C(C(=S)NCc1ccccc1)=C(/N)N1CCCC1"
measured_result = "> 100 µM"

[[record]]
molecule = "Cc1[nH]nc(-c2ccon2)c1N=O"
measured_result = "> 100 µM"

[[record]]
molecule = "C[N+](C)(C)c1ncnc2c1ncn2C1CCCO1 (stereo unspecified)"
measured_result = "> 100 µM"

[[record]]
molecule = "O=C(O)c1cc(CCc2cc(O)ccc2O)ccc1O"
measured_result = "> 100 µM"


Give TGI for this entry on NCI-H460 lung: `COc1ccc(-c2[nH]c3ccccc3c2CCNS(=O)(=O)c2ccc(C)cc2)cc1`
> 10 µM
